System: BxPC-3 (Pancreatic Carcinoma)
EXPERIMENTAL_PROTOCOL: combination Emax (second highest fraction inhibited in the dose matrix, 72 h); higher = more inhibition; extreme values may be limits of the assay
Measured combination Emax by item

>  <COMPOUND>
Cc1c2c(nn1C)CSCc1cc(n(C)n1)CSc1cc(c3ccccc3c1)OCCCc1c(C(=O)O)n(C)c3c-2c(Cl)ccc13 [AZD5991] + C[C@@H]1COCCN1C2=NC(=NC(=C2)C3(CC3)[S@](=N)(=O)C)C4=C5C=CNC5=NC=C4 [AZD6738] (first compound max 1 µM, 7x7, partner max 10 µM)

>  <combination Emax>
0.518

$$$$
>  <COMPOUND>
C[C@@H](c1ccc2nccn2c1)n1nnc2ncc(-c3cnn(C)c3)nc21 [Savolitinib] + CC1(C)CCC(CN2CCN(c3ccc(C(=O)NS(=O)(=O)c4ccc(NCC5CCOCC5)c([N+](=O)[O-])c4)c(Oc4cnc5[nH]ccc5c4)c3)CC2)=C(c2ccc(Cl)cc2)C1 [Venetoclax] (first compound max 1 µM, 7x7, partner max 1 µM)

>  <combination Emax>
0.216

$$$$
>  <COMPOUND>
COc1cccc(OCCCN)c1-c1cc(Nc2cnc(C#N)cn2)n[nH]1 [Prexasertib] + C=CCn1c(=O)c2cnc(Nc3ccc(N4CCN(C)CC4)cc3)nc2n1-c1cccc(C(C)(C)O)n1 [AZD1775] (first compound max 1 µM, partner max 1 µM)

>  <combination Emax>
0.76

$$$$

---

Tested on: WM35 (Melanoma)
EXPERIMENTAL_PROTOCOL: Bliss excess, mean over the matrix (fraction); higher = more synergy
EXPERIMENTAL_READOUT: Bliss excess

>  <MOLECULE>
C[C@@H](c1ccc2nccn2c1)n1nnc2ncc(-c3cnn(C)c3)nc21 [Savolitinib] + CC1(C)CCC(CN2CCN(c3ccc(C(=O)NS(=O)(=O)c4ccc(NCC5CCOCC5)c([N+](=O)[O-])c4)c(Oc4cnc5[nH]ccc5c4)c3)CC2)=C(c2ccc(Cl)cc2)C1 [Venetoclax] (first compound max 1 µM, 7x7, partner max 1 µM)

>  <EXPERIMENTAL_READOUT>
Bliss excess

>  <READOUT_VALUE>
-0.065

$$$$
>  <MOLECULE>
COc1cccc2c1C(=O)c1c(O)c3c(c(O)c1C2=O)C[C@@](O)(C(=O)CO)C[C@@H]3O[C@H]1C[C@H](N)[C@H](O)[C@H](C)O1 [Doxorubicin] + Cc1cc2ncnn2cc1Nc1ncc2c(n1)n(C1CCOCC1)c(=O)n2C [AZD7648] (first compound max 1 µM, 7x7, partner max 10 µM)

>  <EXPERIMENTAL_READOUT>
Bliss excess

>  <READOUT_VALUE>
0.0285

$$$$
>  <MOLECULE>
CC1(C)CCC(CN2CCN(c3ccc(C(=O)NS(=O)(=O)c4ccc(NCC5CCOCC5)c([N+](=O)[O-])c4)c(Oc4cnc5[nH]ccc5c4)c3)CC2)=C(c2ccc(Cl)cc2)C1 [Venetoclax] + Cn1cnc2c(F)c(Nc3ccc(Br)cc3Cl)c(C(=O)NOCCO)cc21 [Selumetinib] (first compound max 1 µM, 7x7, partner max 3 µM)

>  <EXPERIMENTAL_READOUT>
Bliss excess

>  <READOUT_VALUE>
0.0543

$$$$

---

# Bliss excess annotations
System: ES6 (Ewing's Sarcoma)
EXPERIMENTAL_PROTOCOL: Bliss excess, mean over the matrix (fraction); higher = more synergy
EXPERIMENTAL_READOUT: Bliss excess

>  <MOLECULE>
CS(=O)(=O)CCNCc1ccc(-c2ccc3ncnc(Nc4ccc(OCc5cccc(F)c5)c(Cl)c4)c3c2)o1 [Lapatinib] + NC1(c2ccc(-c3nc4ccn5c(=O)[nH]nc5c4cc3-c3ccccc3)cc2)CCC1 [MK-2206] (first compound max 10 µM, 7x7, partner max 10 µM)

>  <READOUT_VALUE>
-0.0408

$$$$
>  <MOLECULE>
CC(=O)Nc1cccc(-n2c(=O)n(C3CC3)c(=O)c3c(Nc4ccc(I)cc4F)n(C)c(=O)c(C)c32)c1 [Trametinib] + Cc1nc(-c2cn3c(n2)-c2ccc(-c4cnn(C(C)(C)C(N)=O)c4)cc2OCC3)n(C(C)C)n1 [Taselisib] (first compound max 1 µM, 7x7, partner max 10 µM)

>  <READOUT_VALUE>
-0.0292

$$$$
>  <MOLECULE>
COc1cc2ncnc(Nc3ccc(F)c(Cl)c3)c2cc1OCCCN1CCOCC1 [Gefitinib] + CC(C)n1c(=O)n(C)c2cnc3cc(F)c(-c4ccc(OCCCN5CCCCC5)nc4)cc3c21 [AZD1390] (first compound max 10 µM, 7x7, partner max 0.3 µM)

>  <READOUT_VALUE>
-0.0574

$$$$
>  <MOLECULE>
CC1(C)CCC(CN2CCN(c3ccc(C(=O)NS(=O)(=O)c4ccc(NCC5CCOCC5)c([N+](=O)[O-])c4)c(Oc4cnc5[nH]ccc5c4)c3)CC2)=C(c2ccc(Cl)cc2)C1 [Venetoclax] + CS(=O)(=O)CCNCc1ccc(-c2ccc3ncnc(Nc4ccc(OCc5cccc(F)c5)c(Cl)c4)c3c2)o1 [Lapatinib] (first compound max 1 µM, 7x7, partner max 10 µM)

>  <READOUT_VALUE>
-0.0675

$$$$
>  <MOLECULE>
CCN(CCO)CCCOc1ccc2c(Nc3cc(CC(=O)Nc4cccc(F)c4)[nH]n3)ncnc2c1 [AZD2811] + O=C(c1cc(Cc2n[nH]c(=O)c3ccccc23)ccc1F)N1CCN(C(=O)C2CC2)CC1 [Olaparib] (first compound max 1 µM, 7x7, partner max 10 µM)

>  <READOUT_VALUE>
-0.0457

$$$$
>  <MOLECULE>
CCc1c2c(nc3ccc(O)cc13)-c1cc3c(c(=O)n1C2)COC(=O)[C@]3(O)CC [SN-38] + O=C(c1cc(Cc2n[nH]c(=O)c3ccccc23)ccc1F)N1CCN(C(=O)C2CC2)CC1 [Olaparib] (first compound max 0.3 µM, 7x7, partner max 10 µM)

>  <READOUT_VALUE>
0.13

$$$$
>  <MOLECULE>
CCN(CCO)CCCOc1ccc2c(Nc3cc(CC(=O)Nc4cccc(F)c4)[nH]n3)ncnc2c1 [AZD2811] + C[C@@H]1COCCN1C2=NC(=NC(=C2)C3(CC3)[S@](=N)(=O)C)C4=C5C=CNC5=NC=C4 [AZD6738] (first compound max 1 µM, 7x7, partner max 10 µM)

>  <READOUT_VALUE>
-0.0479

$$$$
